The reported measurements were obtained from ChEMBL document CHEMBL3244384.

- measurement protocol: Protective index, ratio of TD50 for neurotoxicity to ED50 for anticonvulsant activity in ip dosed albino CD-1 mouse
- Format: toxicity, organism-based
- applied conditions: in vivo, read-out: Ratio TD50/ED50
quantity name: selectivity ratio
One number for each entry.

Sample records with selectivity ratio:
[[record]]
compound = "CC1(C)Oc2ccc(N3C(=O)C[C@H](N)C3=O)cc2O1.Cl"
quantity_name = "selectivity ratio"
obs_value = 1.45

[[record]]
compound = "CC(=O)N[C@@H]1CC(=O)N(Cc2ccccc2)C1=O"
quantity_name = "selectivity ratio"
obs_value = 3.25

[[record]]
compound = "Cl.N[C@@H]1CC(=O)N(Cc2ccc3c(c2)OCO3)C1=O"
quantity_name = "selectivity ratio"
obs_value = 2.54

[[record]]
compound = "Cl.N[C@H]1CC(=O)N(Cc2ccc3c(c2)OCO3)C1=O"
quantity_name = "selectivity ratio"
obs_value = 2.85


Hi team, please reply with selectivity ratio for each item in this list.
1. CN1C(=O)OC(C)(C)C1=O
2. O=C1N=C([O-])NC1(c1ccccc1)c1ccccc1.[Na+] [PHENYTOIN SODIUM]
3. CC(=O)N[C@H]1CC(=O)N(Cc2ccccc2)C1=O
4. CC1(C)Oc2ccc(N3C(=O)C[C@@H](N)C3=O)cc2O1.Cl

1.07
10
4.41
1.68

* * *

- Test system: Mus musculus
- measurement protocol: Anti-parkinsonian activity in ip dosed albino CD-1 mouse assessed as inhibition of oxotremorine-induced salivation at 0.25 to 1 time TD50 administered 30 mins prior challenge
- Format: functional, organism-based
Activity calls are given as the source filed them. The calls are words filed in the database; no cut-off is given here.
Hi! Could you answer with just one of these? active, inactive

Below, 3 compounds whose answers are already recorded.
[[record]]
smiles_representation = "Cl.N[C@H]1CC(=O)N(c2ccc3c(c2)OCO3)C1=O"
assigned_category = "active"

[[record]]
smiles_representation = "CC1(C)Oc2ccc(N3C(=O)C[C@H](N)C3=O)cc2O1.Cl"
assigned_category = "inactive"

[[record]]
smiles_representation = "Cl.N[C@@H]1CC(=O)N(c2ccc3c(c2)OCO3)C1=O"
assigned_category = "active"


Please examine the following record next.
I'd appreciate the recorded outcome for CC1(C)Oc2ccc(N3C(=O)C[C@@H](N)C3=O)cc2O1.Cl from this test.
inactive

* * *

- Test system: Mus musculus
- measurement protocol: Anticonvulsant activity in ip dosed albino CD-1 mouse assessed as protection from maximal electroshock-induced seizures measured at time of peak effect
- Type: functional
- applied conditions: CD-1, ip
Kindly supply the reported ED50 values for the records listed here.
// unit must come after the numeric part

Sample records with ED50:
[[record]]
compound = "Cl.N[C@@H]1CC(=O)N(Cc2ccc3c(c2)OCO3)C1=O"
obs_value = "720 µmol/kg"

[[record]]
compound = "Cl.N[C@H]1CC(=O)N(Cc2ccc3c(c2)OCO3)C1=O"
obs_value = "700 µmol/kg"

[[record]]
compound = "CN1C(=O)OC(C)(C)C1=O"
obs_value = "3720 µmol/kg"


Hi team, please reply with ED50 for each item in this list.
1. CC1(C)Oc2ccc(N3C(=O)C[C@H](N)C3=O)cc2O1.Cl
2. CC(=O)N[C@H]1CC(=O)N(Cc2ccccc2)C1=O
3. Cl.N[C@H]1CC(=O)N(c2ccc3c(c2)OCO3)C1=O
4. CC1(C)Oc2ccc(N3C(=O)C[C@@H](N)C3=O)cc2O1.Cl

1: 840 µmol/kg; 2: 1200 µmol/kg; 3: 5040 µmol/kg; 4: 570 µmol/kg
